system: Mut-p53; assay: Total activity score over combined assays (Table 8); parameters: scale not given here; conditions: Table 10 summary of activity of the peptides tested
Where no end group is shown, it is not given here. The star is where a group is joined. Myristoyl = CCCCCCCCCCCCCC(=O)*
Criterion: Activity Score meeting or surpassing 3. Met: y. Not met: n.

>>> print(df.to_string())
                                   substance  answer_label
 0                         pCAP36 (YPTQGHLR)             y
 1                    pCAP51 (AILTLILRRVIWP)             y
 2                pCAP158 (SFILFIRRGRLGRGDR)             y
 3                     pCAP9 (TIIHREDEDEIEW)             y
 4                    pCAP223 (SPWTHERRCRQR)             n
 5                  pCAP217 (HSTPHPPQPPERRR)             n
 6                  pCAP324 (SHDFPHREPRPERR)             n
 7            pCAP148 (WNHHHSTPHPRRRRRRRRRR)             y
 8                     pCAP58 (SILPLFLIRRSG)             y
 9                         pCAP112 (TTSHHPK)             n
10        pCAP325 (Myristoyl-RRIRDPRILLLHFD)             y
11  pCAP216 (Myristoyl-HFNHYTFESTCRRRRC; cysteine pairing not given here)             n
12             pCAP271 (SPHPPYSPHPPYSPHPPYP)             n
13              pCAP224 (RRKSEPHSLSGGYQTGAD)             n
14                       pCAP62 (YELPHHAYPA)             y
15            pCAP230 (RKRGKSYAFFVPPSESKERW)             y
16                    pCAP46 (ASWQALALYAAGW)             y
17                     pCAP31 (PPYSQFLQWYLS)             n
18                  pCAP241 (LIGLSTSPRPRIIR)             n
19                    pCAP274 (LRDPHPPERRIR)             n
20           pCAP256 (RTLHGRRVILHEGGHSISDLK)             n
21     pCAP259 (Myristoyl-RTLIGIIRSHHLTLIRR)             y
22            pCAP248 (EIYGESGKTDEHALDTEYRR)             n
23                    pCAP50 (WSEYDIPTPQIPP)             n
24              pCAP252 (RRVILRSYDGGHSTPHPD)             n
25                 pCAP69 (SILTLSRRRRRRRRRR)             n
26                       pCAP302 (LRIEPIRIR)             y
27              pCAP204 (MSTESNMPRLIQNDDRRR)             y
28                 pCAP233 (SHYHTPQNPPSTRRR)             y
29                        pCAP49 (TRILCIVMM)             y
30          pCAP157 (SFILFIRRGRLGRKKRRQRRRP)             y
31                  pCAP318 (RPEFHSFHPIYERR)             y
32            pCAP260 (RRTFIRHRIDSTEVIYQDED)             n
33             pCAP133 (SLLIGFGIIRSRRRRRRRR)             y
34                     pCAP48 (IPMNFTSHSLRQ)             y
35                     pCAP79 (SVHHHHRMHLVA)             n
36                      pCAP305 (IREFDPRRIR)             y
37                 pCAP76 (GGGGGGGGGRRRRRRR)             n
38                       pCAP307 (HDPRIIRIR)             n
39                     pCAP269 (DEPLPPPERRR)             n
40                         pCAP128 (CILRLWW)             y
41                     pCAP24 (LRCLLLLIGRVG)             y
42               pCAP263 (YDDEHNHHPHHSTHRRR)             n
43                       pCAP25 (YRRLLIGMMW)             n
44  pCAP308 (Myristoyl-RRICRFIRICRVR; cysteine pairing not given here)             y
45              pCAP140 (TDSHSHHRRRRRRRRRRR)             y
46                          pCAP86 (FGSHHEL)             n
47                  pCAP89 (SILTLSCRCRLRLWR)             y
48                        pCAP16 (LPNPPERHH)             y
49                    pCAP116 (KHHPFDHRLGNQ)             n
50                    pCAP26 (DEFHSFYTARQTG)             n
51                 pCAP210 (DEFERYRRFSTSRRR)             y
52                     pCAP290 (RYKEPRITPRE)             y

---

# Activity Score annotations
system: Mut-p53; experiment: Total activity score over combined assays (Table 8); design: scale not given here; conditions: Table 10 summary of activity of the peptides tested
Where no end group is shown, it is not given here. The star is where a group is joined. Myristoyl = CCCCCCCCCCCCCC(=O)*
metric name: Activity Score

                                 substance  numeric_result
 0                 pCAP211 (PDSEPPRMELRRR)               0
 1          pCAP153 (YWSAPQPATRRRRRRRRRRR)               6
 2                   pCAP22 (SLLIGFGIIRSR)               5
 3                        pCAP174 (HSTPHP)              54
 4           pCAP138 (YPTQGHLRRRRRRRRRRRR)              11
 5                   pCAP21 (NHPWQFPNRWTV)              29
 6             pCAP262 (ESKTGHKSEEQRLRRYR)               0
 7            pCAP213 (RRIKMIRTSESFIQHIVS)               5
 8           pCAP246 (RRRLDDEDVQTPTPSEYQN)               5
 9            pCAP136 (SILTLRLRRLRRRRRRRR)              14
10                  pCAP311 (EIHTIHLLPERR)               0
11                    pCAP277 (DQPYPHRRIR)               3
12                       pCAP101 (IRFILIR)               3
13                    pCAP121 (LTLMRLRIIG)               5
14             pCAP66 (THFSHHLKGGGRRQRRRP)               2
15              pCAP155 (IRGRIIRRRRRRRRRR)              41
16               pCAP283 (RRPADQISYLHPPER)               0
17  pCAP249 (Myristoyl-DERTGKTRRYIDTRDIRR)               6
18                       pCAP1 (EVTFRHSVV)              32
19          pCAP152 (YRRLLIGMRRRRRRRRRRRR)              11
20            pCAP146 (HANLHHTRRRRRRRRRRR)              11
21            pCAP151 (CILRLWWRRRRRRRRRRR)              33
22                   pCAP78 (GESFVQHVFRQN)               0
23                       pCAP104 (LLRLGLI)              21
24          pCAP142 (TLYLPHWHRHRRRRRRRRRR)              14
25                   pCAP28 (HTDSHPHHHHPH)              24
26                        pCAP30 (TIHPSIS)              16
27                         pCAP5 (LEVIYMI)               2
28                pCAP278 (RRYDTVIDDIEYRR)               6
29                        pCAP57 (LMSNAQY)               8
30                   pCAP63 (HNHHHSQHTPQH)               9

Source: patent US11028127B2
